Data provenance is ChEMBL document CHEMBL1138861.

The entries below come with measured inhibition at 10 µM values attached.
target: CYP2C19 (Homo sapiens); assay: Inhibition of CYP2C19 at 10 uM; assay type: ADME
Sequence (P33261 whole entry): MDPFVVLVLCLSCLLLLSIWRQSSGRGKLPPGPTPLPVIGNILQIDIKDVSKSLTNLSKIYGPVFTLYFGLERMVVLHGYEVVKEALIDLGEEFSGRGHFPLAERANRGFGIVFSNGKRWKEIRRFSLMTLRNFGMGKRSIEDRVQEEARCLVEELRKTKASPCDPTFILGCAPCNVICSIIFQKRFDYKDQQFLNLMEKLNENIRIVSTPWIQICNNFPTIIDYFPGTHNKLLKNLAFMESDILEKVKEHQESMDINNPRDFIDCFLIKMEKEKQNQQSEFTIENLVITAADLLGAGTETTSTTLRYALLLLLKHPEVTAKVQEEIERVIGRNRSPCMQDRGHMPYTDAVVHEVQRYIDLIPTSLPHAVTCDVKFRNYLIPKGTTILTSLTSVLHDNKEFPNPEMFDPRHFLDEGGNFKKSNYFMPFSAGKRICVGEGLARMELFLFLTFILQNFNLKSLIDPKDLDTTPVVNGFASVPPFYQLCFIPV
Measured attribute: inhibition at 10 µM (%)

- Nc1ccccc1Nc1ccc2c(c1)CCc1ccccc1C2=O: 53
- C[S+]([O-])c1ccc(-c2nc(-c3ccncc3)c(-c3ccc(F)cc3)[nH]2)cc1 (configuration not stated): 92

###

The entries below come with measured inhibition at 10 µM values attached.
target: CYP3A4 (Homo sapiens, UniProt P08684); assay: Inhibition of CYP3A4 at 10 uM; assay type: ADME
Sequence (P08684 whole entry): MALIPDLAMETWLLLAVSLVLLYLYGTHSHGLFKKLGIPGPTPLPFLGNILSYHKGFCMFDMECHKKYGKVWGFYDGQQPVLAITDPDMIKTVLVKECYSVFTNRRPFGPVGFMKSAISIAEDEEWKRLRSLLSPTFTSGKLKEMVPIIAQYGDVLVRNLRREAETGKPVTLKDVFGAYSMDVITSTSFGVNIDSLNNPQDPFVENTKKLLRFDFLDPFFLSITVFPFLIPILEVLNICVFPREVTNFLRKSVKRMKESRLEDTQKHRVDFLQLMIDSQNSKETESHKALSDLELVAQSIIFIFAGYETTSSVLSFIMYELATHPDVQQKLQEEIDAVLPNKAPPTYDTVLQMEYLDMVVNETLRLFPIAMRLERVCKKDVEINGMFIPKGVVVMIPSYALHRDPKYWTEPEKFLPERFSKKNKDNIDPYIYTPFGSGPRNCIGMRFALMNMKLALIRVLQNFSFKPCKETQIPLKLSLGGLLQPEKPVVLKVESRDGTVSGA
Measured attribute: inhibition at 10 µM (%)

* Nc1ccccc1Nc1ccc2c(c1)CCc1ccccc1C2=O | 70
* C[S+]([O-])c1ccc(-c2nc(-c3ccncc3)c(-c3ccc(F)cc3)[nH]2)cc1 (configuration not stated) | 77

###

molecular target: CYP2D6 (Homo sapiens); assay: Inhibition of CYP2D6 at 10 uM; type: ADME
Sequence (P10635 whole entry): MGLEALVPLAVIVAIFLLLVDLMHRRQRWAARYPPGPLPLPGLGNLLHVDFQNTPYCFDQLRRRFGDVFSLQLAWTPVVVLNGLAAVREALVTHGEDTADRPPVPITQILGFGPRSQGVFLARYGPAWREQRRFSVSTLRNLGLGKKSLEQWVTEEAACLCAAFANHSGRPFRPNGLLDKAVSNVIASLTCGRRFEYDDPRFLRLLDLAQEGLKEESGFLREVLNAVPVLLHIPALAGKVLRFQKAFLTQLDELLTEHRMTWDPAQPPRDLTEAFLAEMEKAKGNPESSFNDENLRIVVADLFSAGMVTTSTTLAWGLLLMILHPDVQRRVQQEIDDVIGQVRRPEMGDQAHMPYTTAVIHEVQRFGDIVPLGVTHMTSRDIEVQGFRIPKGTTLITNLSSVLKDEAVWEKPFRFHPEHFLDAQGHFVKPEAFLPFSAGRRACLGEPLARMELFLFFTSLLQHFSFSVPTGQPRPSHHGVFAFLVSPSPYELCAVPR
Measured attribute: inhibition at 10 µM (%)

* Nc1ccccc1Nc1ccc2c(c1)CCc1ccccc1C2=O | 42
* C[S+]([O-])c1ccc(-c2nc(-c3ccncc3)c(-c3ccc(F)cc3)[nH]2)cc1 (configuration not stated) | 73

###

The entries below come with measured IC50 values attached.
target: Mitogen-activated protein kinase 14 (Homo sapiens, UniProt Q16539)
Sequence (Q16539 whole entry): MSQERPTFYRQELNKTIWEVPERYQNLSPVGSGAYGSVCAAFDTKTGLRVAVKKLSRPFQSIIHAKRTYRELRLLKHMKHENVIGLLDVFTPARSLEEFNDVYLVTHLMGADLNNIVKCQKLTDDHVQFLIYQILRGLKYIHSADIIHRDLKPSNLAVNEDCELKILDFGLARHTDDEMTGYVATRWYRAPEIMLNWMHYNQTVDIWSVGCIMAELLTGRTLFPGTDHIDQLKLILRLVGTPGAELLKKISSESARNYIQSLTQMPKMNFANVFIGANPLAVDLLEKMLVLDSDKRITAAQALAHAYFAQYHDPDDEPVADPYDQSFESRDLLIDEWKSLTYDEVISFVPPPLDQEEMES
Measured attribute: IC50 (nM)

* Nc1ccccc1Nc1ccc2c(=O)c3ccccc3ccc2c1 | 1060
* Nc1ccc(Nc2ccc3c(c2)OCc2ccccc2C3=O)c(F)c1 | 1320
* Cc1ccccc1C(=O)c1ccc(Nc2ccccc2)cc1Cl | 190
* Nc1ccccc1Nc1ccc2c(c1)SCc1ccccc1C2=O | 196
* O=C1c2ccccc2COc2cc(Nc3ccc(Cl)cc3Cl)ccc21 | 3020
* O=C1c2ccccc2COc2cc(Nc3ccc(F)cc3F)ccc21 | 239
* Nc1ccccc1Nc1ccc2c(c1)COc1ccccc1C2=O | 3060
* Nc1ccc(Nc2ccc3c(c2)CCc2ccccc2C3=O)cc1 | 1170
* Nc1cc(F)ccc1Nc1ccc2c(c1)OCc1ccccc1C2=O | 38
* Nc1cccc(Nc2ccc3c(c2)OCc2ccccc2C3=O)c1 | 1220

###

molecular target: Mitogen-activated protein kinase 14 (Homo sapiens, UniProt Q16539)
The entries below come with measured IC50 values attached.
Measured attribute: IC50

• Nc1ccc(Nc2ccc3c(c2)OCc2ccccc2C3=O)cc1 = > 5 µM
• O=C1c2ccccc2COc2cc(Nc3ccc(Br)cc3Br)ccc21 = > 5 µM
• Nc1ccc(Nc2ccc3c(c2)OCc2ccccc2C3=O)c(N)c1 = > 5 µM
